Provide the recorded EC50(wt)/EC50(mut) for the entries that follow.
Biological target: ErbB-3 receptor-Ig fusion (homodimer) (human, UniProt P21860 20-643; P21860 20-636)
Sequence (P21860 other isoform, or with tags, fused parts or gaps): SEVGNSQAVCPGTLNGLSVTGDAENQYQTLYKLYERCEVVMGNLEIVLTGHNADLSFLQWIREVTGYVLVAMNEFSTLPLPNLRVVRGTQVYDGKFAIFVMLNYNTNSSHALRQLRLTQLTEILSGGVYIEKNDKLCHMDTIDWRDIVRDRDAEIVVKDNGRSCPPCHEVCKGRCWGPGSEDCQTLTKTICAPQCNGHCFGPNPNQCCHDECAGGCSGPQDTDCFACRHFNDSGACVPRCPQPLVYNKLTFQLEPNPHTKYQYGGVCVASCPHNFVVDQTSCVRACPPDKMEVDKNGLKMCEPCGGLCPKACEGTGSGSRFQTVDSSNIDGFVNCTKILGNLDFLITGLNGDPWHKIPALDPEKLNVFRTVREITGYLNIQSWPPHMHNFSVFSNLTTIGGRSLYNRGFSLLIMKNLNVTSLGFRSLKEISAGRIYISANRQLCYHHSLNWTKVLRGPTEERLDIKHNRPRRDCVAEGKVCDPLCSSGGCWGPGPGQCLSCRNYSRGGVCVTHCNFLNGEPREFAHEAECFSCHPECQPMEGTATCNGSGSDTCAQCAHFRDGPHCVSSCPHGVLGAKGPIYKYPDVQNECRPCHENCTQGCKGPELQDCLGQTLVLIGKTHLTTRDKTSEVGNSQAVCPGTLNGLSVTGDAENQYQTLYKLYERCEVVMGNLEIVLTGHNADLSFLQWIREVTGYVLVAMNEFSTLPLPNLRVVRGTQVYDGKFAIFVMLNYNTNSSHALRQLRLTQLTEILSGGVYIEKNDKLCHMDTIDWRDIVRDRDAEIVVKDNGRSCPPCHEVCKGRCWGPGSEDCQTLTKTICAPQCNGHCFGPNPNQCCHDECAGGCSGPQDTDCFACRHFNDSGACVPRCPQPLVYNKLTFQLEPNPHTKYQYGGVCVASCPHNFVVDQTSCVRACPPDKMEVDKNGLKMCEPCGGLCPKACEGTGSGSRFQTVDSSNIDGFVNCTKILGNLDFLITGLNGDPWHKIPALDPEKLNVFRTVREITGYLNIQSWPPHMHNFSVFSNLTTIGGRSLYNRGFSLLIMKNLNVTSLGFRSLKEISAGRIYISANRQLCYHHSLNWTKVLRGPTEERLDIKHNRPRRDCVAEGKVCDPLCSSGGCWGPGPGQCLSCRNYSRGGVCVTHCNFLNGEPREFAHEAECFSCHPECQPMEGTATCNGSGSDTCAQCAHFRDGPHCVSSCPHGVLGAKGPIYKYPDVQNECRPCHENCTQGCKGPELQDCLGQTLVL
Experiment: phage ELISA, soluble ErbB-3-Ig as competitor
Ends that are not written are not given here.
Numbers only, in ratio.

binder	reading_unit	EC50(wt)/EC50(mut)
HRG-β1 EGF variant D1, phage-displayed (ligand, not fully specified; cysteine pairing not given here, pHRG8-g3 scaffold; not shown: Display carrier only: the (GGGS)3 linker and the M13 pIII C-terminal fragment from residue 323) SHLVKCAEKEKTFCVNGGECYKVRILSNPSRYLCKCPNEFTGDRCQNYVIAS	ratio	11

--- query ---
Data request: For the binder combination variant HRG56, phage-displayed (ligand, not fully specified; cysteine pairing not given here, not shown: Display carrier: (GGGS)3 linker and M13 pIII C-terminal fragment from residue 323) SHLVKCGEEREGFCVNGGECFMVKDLSNPSRYLCKCPNEFTGDRCQNYVIAS , give its measured EC50(wt)/EC50(mut) value.
Data returned: 31

Data credit: patent US6387638
